- TARGET: T1, full length human DLL4 (human, UniProt Q9NR61 27-685)
- T1 construct: whole, on cells; also called native DLL4 expressed in HEK293 cells
- T1 sequence (Q9NR61 27-685): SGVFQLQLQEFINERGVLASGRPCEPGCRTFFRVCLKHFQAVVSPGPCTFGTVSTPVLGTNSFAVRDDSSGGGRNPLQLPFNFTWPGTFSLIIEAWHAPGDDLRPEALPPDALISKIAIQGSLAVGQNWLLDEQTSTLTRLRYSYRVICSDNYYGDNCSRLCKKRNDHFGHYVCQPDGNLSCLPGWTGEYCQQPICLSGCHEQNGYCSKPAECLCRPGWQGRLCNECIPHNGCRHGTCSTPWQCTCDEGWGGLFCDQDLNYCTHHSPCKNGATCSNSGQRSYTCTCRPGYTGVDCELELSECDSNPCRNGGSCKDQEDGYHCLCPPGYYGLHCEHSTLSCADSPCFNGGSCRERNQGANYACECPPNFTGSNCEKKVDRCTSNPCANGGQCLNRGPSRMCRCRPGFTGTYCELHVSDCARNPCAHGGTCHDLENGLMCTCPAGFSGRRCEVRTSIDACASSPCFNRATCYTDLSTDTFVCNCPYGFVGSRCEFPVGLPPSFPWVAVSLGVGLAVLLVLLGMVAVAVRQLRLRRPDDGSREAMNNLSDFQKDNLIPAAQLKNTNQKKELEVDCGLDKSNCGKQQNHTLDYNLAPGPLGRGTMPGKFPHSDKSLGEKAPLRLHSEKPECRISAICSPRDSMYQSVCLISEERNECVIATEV
- ASSAY_PROCEDURE: FMAT competition, purified antibody vs Alexa-647 human Notch1/Fc, 293T cells with human DLL4
MEASUREMENT_TYPE: % inhibition at 0.62 nM

Some binders with known % inhibition at 0.62 nM results, for comparison:
{"BINDER": "1D4 (antibody, IgG4, V domains shown, Fully human XenoMouse antibody; also used where no isotype is printed) VH: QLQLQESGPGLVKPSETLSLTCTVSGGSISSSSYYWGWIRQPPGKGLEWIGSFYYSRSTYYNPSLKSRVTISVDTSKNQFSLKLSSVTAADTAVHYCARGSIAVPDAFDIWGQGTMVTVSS VL: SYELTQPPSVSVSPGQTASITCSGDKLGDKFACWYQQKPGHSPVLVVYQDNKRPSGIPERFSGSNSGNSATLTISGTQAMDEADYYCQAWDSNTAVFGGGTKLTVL", "RESULT": "13%"}
{"BINDER": "1E4 (antibody, IgG2, V domains shown, Fully human; also used where no isotype is printed) VH: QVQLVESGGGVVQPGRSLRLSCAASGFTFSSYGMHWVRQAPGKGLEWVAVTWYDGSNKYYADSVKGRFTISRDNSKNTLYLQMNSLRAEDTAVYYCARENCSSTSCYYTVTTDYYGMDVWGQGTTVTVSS VL: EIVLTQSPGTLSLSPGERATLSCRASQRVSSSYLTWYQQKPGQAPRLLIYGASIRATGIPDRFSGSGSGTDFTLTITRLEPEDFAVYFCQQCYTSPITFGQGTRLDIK", "RESULT": "46%"}
{"BINDER": "17F3 (antibody, IgG2, V domains shown, Fully human; also used where no isotype is printed) VH: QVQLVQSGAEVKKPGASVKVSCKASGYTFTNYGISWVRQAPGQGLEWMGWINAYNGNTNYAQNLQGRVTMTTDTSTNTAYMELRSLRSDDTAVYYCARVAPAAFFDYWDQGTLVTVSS VL: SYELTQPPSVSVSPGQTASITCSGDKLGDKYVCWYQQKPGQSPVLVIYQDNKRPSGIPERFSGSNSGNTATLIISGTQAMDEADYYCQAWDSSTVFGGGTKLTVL", "RESULT": "29%"}

# evaluate next
Task: Given 9G8 (antibody, IgG4, V domains shown, Fully human; used for IgG4 rows and where no isotype is printed; also called 9G8 IgG4) VH: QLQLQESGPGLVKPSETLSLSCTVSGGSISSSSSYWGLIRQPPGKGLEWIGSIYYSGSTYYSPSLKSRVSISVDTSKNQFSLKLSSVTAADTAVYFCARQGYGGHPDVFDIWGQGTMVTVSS VL: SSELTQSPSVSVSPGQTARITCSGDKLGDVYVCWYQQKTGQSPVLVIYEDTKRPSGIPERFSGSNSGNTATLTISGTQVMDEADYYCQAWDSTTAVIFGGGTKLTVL , state its recorded % inhibition at 0.62 nM.
Result: 22%
